Conditions: rat, in vivo, 60 min
readout.label: Heart/Lung Counts/Gram ratio
// return a plain number; no unit text

Looking for the measured Heart/Lung Counts/Gram ratio of COCC(COC)(CP(C)C)CP(C)C.COCC(COC)(CP(C)C)CP(C)C.COCC(COC)(CP(C)C)CP(C)C.[99Tc+] [Example 18] , can you help?
3.2

* * *

Assay: Animal biodistribution of 99mTc complexes in guinea pigs
Format: in vivo, guinea pig
Conditions: guinea pig, 60 min p.i. in vivo, mean
readout.label: Kidney + Urine

The following molecules have reported results that may help.
COCC(COC)(CP(C)C)CP(C)C.COCC(COC)(CP(C)C)CP(C)C.COCC(COC)(CP(C)C)CP(C)C.[99Tc+] :: 15.0 % injected dose/organ
COCC(COC)(CP(C)C)CP(C)C.COCC(COC)(CP(C)C)CP(C)C.O=[N][99Tc+][Cl].[Cl-] :: 18.1 % injected dose/organ
COC(CC(OC)P(C)C)P(C)C.COC(CC(OC)P(C)C)P(C)C.O=[N][99Tc+][Cl].[Cl-] (stereo not shown) :: 17.6 % injected dose/organ

Now look at this one.
Looking for the measured Kidney + Urine of COC(CC(OC)P(C)C)P(C)C.COC(CC(OC)P(C)C)P(C)C.COC(CC(OC)P(C)C)P(C)C.[99Tc+] (stereo not shown) , can you help?
23.3 % injected dose/organ

* * *

Conditions: rat, in vivo, 60 min
readout.label: Heart/Blood Counts/Gram ratio

COCP(C)CCP(C)C (stereo not drawn) [Example 2, Me2 P-(CH2)2 -P(Me) (CH2 OMe)] :: 49.63
COC(CC(OC)P(C)C)P(C)C.COC(CC(OC)P(C)C)P(C)C.O=[N][99Tc+][Cl].[Cl-] (stereo not drawn) [Example 17] :: 39.1
COCC(COC)(CP(C)C)CP(C)C.COCC(COC)(CP(C)C)CP(C)C.O=[N][99Tc+][Cl].[Cl-] [Example 19] :: 192
COC(CC(OC)P(C)C)P(C)C.COC(CC(OC)P(C)C)P(C)C.COC(CC(OC)P(C)C)P(C)C.[99Tc+] (stereo not drawn) [Example 16] :: 22.1
COCP(C)CCP(C)COC (stereo not drawn) [Example 1, MeP(CH2 OMe)-(CH2)2 -(Me)P(CH2 OMe)] :: 25.7

Now look at this one.
Looking for the measured Heart/Blood Counts/Gram ratio of COCC(COC)(CP(C)C)CP(C)C.COCC(COC)(CP(C)C)CP(C)C.COCC(COC)(CP(C)C)CP(C)C.[99Tc+] [Example 18] , can you help?
152

* * *

Catalogue of compounds with associated Muscle
Settings: rat, in vivo, 60 min
Quick reminder: number only, in % injected dose/organ, skip the unit.

COC(CC(OC)P(C)C)P(C)C.COC(CC(OC)P(C)C)P(C)C.COC(CC(OC)P(C)C)P(C)C.[99Tc+] (stereo not shown) :: 17.1
COCC(COC)(CP(C)C)CP(C)C.COCC(COC)(CP(C)C)CP(C)C.O=[N][99Tc+][Cl].[Cl-] :: 28.2

Now look at this one.
Looking for the measured Muscle of COC(CC(OC)P(C)C)P(C)C.COC(CC(OC)P(C)C)P(C)C.O=[N][99Tc+][Cl].[Cl-] (stereo not shown) , can you help?
22.9

* * *

Test: Animal biodistribution of 99mTc complexes in guinea pigs;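 also: Heart, liver and kidney plus urine values are percent of the injected material, background-corrected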
Assay type: in vivo, guinea pig
Conditions: guinea pig, 60 min p.i. in vivo, mean
Catalogue of compounds with associated Liver + GI
Quick reminder: number only, in % injected dose/organ, skip the unit.

The following compounds have reported results that may help.
COC(CC(OC)P(C)C)P(C)C.COC(CC(OC)P(C)C)P(C)C.COC(CC(OC)P(C)C)P(C)C.[99Tc+] (stereo not shown) [Example 16] :: 48.6
COC(CC(OC)P(C)C)P(C)C.COC(CC(OC)P(C)C)P(C)C.O=[N][99Tc+][Cl].[Cl-] (stereo not shown) [Example 17] :: 57.1
COCC(COC)(CP(C)C)CP(C)C.COCC(COC)(CP(C)C)CP(C)C.COCC(COC)(CP(C)C)CP(C)C.[99Tc+] [Example 18] :: 53.3

Looking for the measured Liver + GI of COCC(COC)(CP(C)C)CP(C)C.COCC(COC)(CP(C)C)CP(C)C.O=[N][99Tc+][Cl].[Cl-] [Example 19] , can you help?
45.9

* * *

Settings: rat, in vivo, 60 min
readout.label: Liver (% injected dose/organ)
Quick reminder: number only, in % injected dose/organ, skip the unit.

COC(CC(OC)P(C)C)P(C)C.COC(CC(OC)P(C)C)P(C)C.COC(CC(OC)P(C)C)P(C)C.[99Tc+] (stereo not drawn) [Example 16] :: 8.81
COCC(COC)(CP(C)C)CP(C)C.COCC(COC)(CP(C)C)CP(C)C.O=[N][99Tc+][Cl].[Cl-] [Example 19] :: 1.03

Now look at this one.
Looking for the measured Liver of COC(CC(OC)P(C)C)P(C)C.COC(CC(OC)P(C)C)P(C)C.O=[N][99Tc+][Cl].[Cl-] (stereo not drawn) [Example 17] , can you help?
6.03

* * *

Conditions: rat, in vivo, 60 min
readout.label: Kidney + Urine (% injected dose/organ)
Quick reminder: number only, in % injected dose/organ, skip the unit.

COC(CC(OC)P(C)C)P(C)C.COC(CC(OC)P(C)C)P(C)C.COC(CC(OC)P(C)C)P(C)C.[99Tc+] (stereo not shown) [Example 16] :: 25.7

Looking for the measured Kidney + Urine of COC(CC(OC)P(C)C)P(C)C.COC(CC(OC)P(C)C)P(C)C.O=[N][99Tc+][Cl].[Cl-] (stereo not shown) [Example 17] , can you help?
15.8

Looking for the measured Kidney + Urine of COCC(COC)(CP(C)C)CP(C)C.COCC(COC)(CP(C)C)CP(C)C.O=[N][99Tc+][Cl].[Cl-] [Example 19] , can you help?
11.0

* * *

Conditions: rat, in vivo, 2 min
readout.label: Liver (% injected dose/organ)
Quick reminder: number only, in % injected dose/organ, skip the unit.

COCC(COC)(CP(C)C)CP(C)C.COCC(COC)(CP(C)C)CP(C)C.O=[N][99Tc+][Cl].[Cl-] [Example 19] :: 13.2

Looking for the measured Liver of COC(CC(OC)P(C)C)P(C)C.COC(CC(OC)P(C)C)P(C)C.COC(CC(OC)P(C)C)P(C)C.[99Tc+] (centres unmarked) [Example 16] , can you help?
17.4

* * *

Conditions: rat, in vivo, 60 min
readout.label: Heart (% injected dose/organ)
Quick reminder: number only, in % injected dose/organ, skip the unit.

The following molecules have reported results that may help.
COC(CC(OC)P(C)C)P(C)C.COC(CC(OC)P(C)C)P(C)C.COC(CC(OC)P(C)C)P(C)C.[99Tc+] (stereo not drawn) :: 0.99
COCC(COC)(CP(C)C)CP(C)C.COCC(COC)(CP(C)C)CP(C)C.O=[N][99Tc+][Cl].[Cl-] :: 1.47

Now look at this one.
Looking for the measured Heart of COC(CC(OC)P(C)C)P(C)C.COC(CC(OC)P(C)C)P(C)C.O=[N][99Tc+][Cl].[Cl-] (stereo not drawn) , can you help?
1.23

* * *

Conditions: rat, in vivo, 2 min
readout.label: Heart (% injected dose)
Quick reminder: number only, in % injected dose, skip the unit.

COCP(C)CCP(C)C (centres unmarked) :: 0.96

Now look at this one.
Looking for the measured Heart of COCP(C)CCP(C)COC (centres unmarked) , can you help?
1.71

* * *

Settings: rat, in vivo, 60 min
Catalogue of molecules with associated Heart/Lung Counts/Gram ratio
// return a plain number; no unit text

The following molecules have reported results that may help.
COCC(COC)(CP(C)C)CP(C)C.COCC(COC)(CP(C)C)CP(C)C.O=[N][99Tc+][Cl].[Cl-] :: 3.6
COC(CC(OC)P(C)C)P(C)C.COC(CC(OC)P(C)C)P(C)C.O=[N][99Tc+][Cl].[Cl-] (stereo not drawn) :: 2.7

Looking for the measured Heart/Lung Counts/Gram ratio of COC(CC(OC)P(C)C)P(C)C.COC(CC(OC)P(C)C)P(C)C.COC(CC(OC)P(C)C)P(C)C.[99Tc+] (stereo not drawn) , can you help?
0.7

* * *

Settings: rat, in vivo, 60 min
Catalogue of compounds with associated Liver
Quick reminder: number only, in % injected dose, skip the unit.

COCP(C)CCP(C)COC (stereo not drawn) [Example 1, MeP(CH2 OMe)-(CH2)2 -(Me)P(CH2 OMe)] :: 1.53

Looking for the measured Liver of COCP(C)CCP(C)C (stereo not drawn) [Example 2, Me2 P-(CH2)2 -P(Me) (CH2 OMe)] , can you help?
1.62

* * *

Details: rat, in vivo, 2 min
Catalogue of molecules with associated Liver
Quick reminder: number only, in % injected dose, skip the unit.

COCP(C)CCP(C)C (stereo not drawn) :: 20.45

Now look at this one.
Looking for the measured Liver of COCP(C)CCP(C)COC (stereo not drawn) , can you help?
12.6
